- system: Dihydrofolate reductase (Rattus norvegicus)
- Sequence (Q920D2 whole entry): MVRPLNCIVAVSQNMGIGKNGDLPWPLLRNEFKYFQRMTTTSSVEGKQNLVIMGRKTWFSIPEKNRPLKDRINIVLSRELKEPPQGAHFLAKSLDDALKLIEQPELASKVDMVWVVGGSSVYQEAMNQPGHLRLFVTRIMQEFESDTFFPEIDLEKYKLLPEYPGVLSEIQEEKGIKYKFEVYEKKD
- protocol notes: In vitro inhibition of rat liver dihydrofolate reductase.
- cond: read-out: I50
readout type: pIC50
By convention, pIC50 is the negative base-10 log of a molar concentration.

Recorded results for 5 compounds are shown here.
>  <compound>
C=CCc1cc(Cc2cnc(N)nc2N)cc(CC=C)c1OC

>  <system>
Dihydrofolate reductase (Rattus norvegicus)

>  <pIC50>
4.74

$$$$
>  <compound>
C=CCc1cc(Cc2cnc(N)nc2N)cc(CC=C)c1O

>  <system>
Dihydrofolate reductase (Rattus norvegicus)

>  <pIC50>
5.02

$$$$
>  <compound>
C=CCOc1ccc(Cc2cnc(N)nc2N)cc1

>  <system>
Dihydrofolate reductase (Rattus norvegicus)

>  <pIC50>
3.49

$$$$
>  <compound>
CCCOc1cc(Cc2cnc(N)nc2N)cc(OC)c1OC

>  <system>
Dihydrofolate reductase (Rattus norvegicus)

>  <pIC50>
4.02

$$$$
>  <compound>
COc1cc(Cc2cnc(N)nc2N)cc(CC(C)O)c1O (configuration not stated)

>  <system>
Dihydrofolate reductase (Rattus norvegicus)

>  <pIC50>
4.44

$$$$

What value of pIC50 has been recorded for this entry: C=CCOc1ccc(Cc2cnc(N)nc2N)cc1CC=C
4.96

Item: C/C=C/c1cc(Cc2cnc(N)nc2N)cc(CCC)c1OC
4.62

---

Parameter: MIC. Scope: all listed entries.
- Test system: Staphylococcus aureus
- protocol notes: Ratio of antibacterial (Staphylococcus aureus CN491) activities of compound and trimethoprim
- Assay type: functional
Lab book: enter the figure in µg/mL, no units written.

>  <compound>
Cc1cc(Cc2cnc(N)nc2N)cc2c1OC(C)(C)C2

>  <reported>
3

$$$$
>  <compound>
CCOc1cc(Cc2cnc(N)nc2N)cc2c1OCO2

>  <reported>
10

$$$$
>  <compound>
CCCc1cc(Cc2cnc(N)nc2N)cc2c1OC(C)C2 (stereo unspecified)

>  <reported>
1

$$$$

Which MIC is listed for CCc1cc(Cc2cnc(N)nc2N)cc2c1OC(C)C2 (stereo unspecified) ?
1

Same read-out for CCCc1cc(Cc2cnc(N)nc2N)cc2c1OC(C)C2C (stereo unspecified) ?
1

// next record CCCc1cc(Cc2cnc(N)nc2N)cc2c1OC(C)(C)C2
3

---

Target sequence: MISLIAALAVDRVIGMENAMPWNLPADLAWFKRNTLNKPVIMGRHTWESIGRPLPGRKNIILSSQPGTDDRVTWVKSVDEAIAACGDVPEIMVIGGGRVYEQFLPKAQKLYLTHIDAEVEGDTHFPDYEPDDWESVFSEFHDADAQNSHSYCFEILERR
pIC50: −log10 of the molar value.
Outcome: y for pIC50 of at least 7; n for anything lower.

Here's what some known entries look like.
>  <compound>
CCCc1cc(Cc2cnc(N)nc2N)cc2c1OC(C)(C)C2

>  <discrete label>
n

$$$$
>  <compound>
CCCc1cc(Cc2cnc(N)nc2N)cc2c1OC(C)C2 (stereo unspecified)

>  <discrete label>
y

$$$$

Confirm if pIC50 reported for the compound CCOc1cc(Cc2cnc(N)nc2N)cc2c1OCO2 is 7 or above.
y

Input CCc1cc(Cc2cnc(N)nc2N)cc2c1OC(C)C2 (stereo unspecified)
y

Next compound up: Cc1cc(Cc2cnc(N)nc2N)cc2c1OC(C)(C)C2
y

Also need CCCc1cc(Cc2cnc(N)nc2N)cc2c1OC(C)C2C (stereo unspecified) , thanks.
y

---

- Test system: Escherichia coli
- protocol notes: Antibacterial (Escherichia coli) activity compared to trimethoprim.
- Assay type: functional
Some compounds, each annotated with its measured MIC.
Answer in µg/mL, number only, no unit symbol.

Consider the reported MIC for these compounds:
>  <compound>
CCCc1cc(Cc2cnc(N)nc2N)cc(OC)c1OC

>  <MIC / µg/mL>
6

$$$$
>  <compound>
C=CCc1cc(Cc2cnc(N)nc2N)cc(OC)c1O

>  <MIC / µg/mL>
1

$$$$

Give the measured MIC of COc1cc(Cc2cnc(N)nc2N)cc(CC(C)O)c1O (configuration not stated) .
4

Now consider C/C=C/c1cc(Cc2cnc(N)nc2N)cc(CCC)c1OC .
26

What about this compound? C=CCOc1ccc(Cc2cnc(N)nc2N)cc1OC
7.6

C=CCOc1ccc(Cc2cnc(N)nc2N)cc1 , same question.
72

What would you report for C=CCc1cc(Cc2cnc(N)nc2N)cc(CCC)c1O ?
5

---

Measured log10 MIC by item
- System: Proteus vulgaris
- protocol notes: Antibacterial (Proteus vulgaris CN329) activity compared to trimethoprim.
- Assay type: functional
Values are log10 of MIC in µg/mL.

Previously resolved entries follow.
>  <molecule>
C=CCc1cc(Cc2cnc(N)nc2N)cc(CCC)c1O

>  <system>
Proteus vulgaris

>  <log10 MIC>
1.48

$$$$
>  <molecule>
C=CCc1cc(Cc2cnc(N)nc2N)cc(OC)c1OC

>  <system>
Proteus vulgaris

>  <log10 MIC>
1.00

$$$$
>  <molecule>
CCOc1cc(Cc2cnc(N)nc2N)cc(OC)c1OC

>  <system>
Proteus vulgaris

>  <log10 MIC>
0.00

$$$$
>  <molecule>
C=CCc1cc(Cc2cnc(N)nc2N)ccc1O

>  <system>
Proteus vulgaris

>  <log10 MIC>
1.70

$$$$
>  <molecule>
C=CCOc1cc(Cc2cnc(N)nc2N)cc(OC)c1OC

>  <system>
Proteus vulgaris

>  <log10 MIC>
1.00

$$$$
>  <molecule>
C=CCc1cc(Cc2cnc(N)nc2N)cc(CC=C)c1OC

>  <system>
Proteus vulgaris

>  <log10 MIC>
2.00

$$$$

If you can, please state the reported log10 MIC value of COc1cc(Cc2cnc(N)nc2N)cc(OC)c1OC .
0.00

Now give it for C/C=C/c1cc(Cc2cnc(N)nc2N)cc(OC)c1OC too.
0.48

Next molecule up: C=CCOc1ccc(Cc2cnc(N)nc2N)cc1OC
0.48

Record: CCCc1cc(Cc2cnc(N)nc2N)cc(OC)c1OC
1.00

// query: COc1cc(Cc2cnc(N)nc2N)cc(CC(C)O)c1O (centres undefined)
1.48

Subsequent entry: C=CCc1cc(Cc2cnc(N)nc2N)cc(OC)c1O
0.48

Field entry: CCCOc1cc(Cc2cnc(N)nc2N)cc(OC)c1OC
0.48

Entry to check: C=CCc1cc(Cc2cnc(N)nc2N)cc(CC=C)c1O
1.70

---

- System: Fusobacterium nucleatum
- protocol notes: Ratio of antibacterial (Fusobacterium nucleatum) activities compared to that of trimethoprim and metronidazole
- Assay type: functional
readout type: MIC

>  <compound>
C=CCc1cc(Cc2cnc(N)nc2N)cc(CCC)c1OC

>  <MIC>
0.8 µg/mL

$$$$
>  <compound>
COc1cc(Cc2cnc(N)nc2N)cc(OC)c1OC [TRIMETHOPRIM]

>  <MIC>
0.8 µg/mL

$$$$
>  <compound>
C/C=C/c1cc(Cc2cnc(N)nc2N)cc(/C=C/C)c1OC

>  <MIC>
1.6 µg/mL

$$$$
>  <compound>
C=CCc1cc(Cc2cnc(N)nc2N)cc(CC=C)c1OC

>  <MIC>
0.8 µg/mL

$$$$
>  <compound>
C=CCc1cc(Cc2cnc(N)nc2N)cc(OC)c1O

>  <MIC>
0.2 µg/mL

$$$$
>  <compound>
C/C=C/c1cc(Cc2cnc(N)nc2N)cc(CCC)c1OC

>  <MIC>
0.8 µg/mL

$$$$

Bench note: what MIC did C/C=C/c1cc(Cc2cnc(N)nc2N)cc(OC)c1OC show?
0.8 µg/mL

One more compound: CCCc1cc(Cc2cnc(N)nc2N)cc(OC)c1OC
0.4 µg/mL

Okay, and C=CCc1cc(Cc2cnc(N)nc2N)ccc1O ?
0.8 µg/mL

Likewise for C=CCOc1ccc(Cc2cnc(N)nc2N)cc1OC ?
0.8 µg/mL

Thanks! And C=CCOc1ccc(Cc2cnc(N)nc2N)cc1CC=C ?
0.8 µg/mL

---

- Tested on: Shigella flexneri
- protocol notes: Antibacterial (Shigella flexneri CN6007) activity compared to trimethoprim.
- Format: functional
readout type: MIC (µg/mL)
Numbers only here, please. The scale is µg/mL.

>  <compound>
C=CCc1cc(Cc2cnc(N)nc2N)ccc1O

>  <MIC [µg/mL]>
10

$$$$
>  <compound>
COc1cc(Cc2cnc(N)nc2N)cc(CC(C)O)c1O (stereo not drawn)

>  <MIC [µg/mL]>
3

$$$$
>  <compound>
C=CCc1cc(Cc2cnc(N)nc2N)cc(CCC)c1OC

>  <MIC [µg/mL]>
100

$$$$
>  <compound>
C=CCc1cc(Cc2cnc(N)nc2N)cc(CC=C)c1OC

>  <MIC [µg/mL]>
100

$$$$
>  <compound>
C=CCOc1ccc(Cc2cnc(N)nc2N)cc1

>  <MIC [µg/mL]>
100

$$$$

Look at this compound and give its reported MIC. C=CCOc1ccc(Cc2cnc(N)nc2N)cc1CC=C
500

Another: C/C=C/c1cc(Cc2cnc(N)nc2N)cc(/C=C/C)c1OC
100

Quick one: C=CCc1cc(Cc2cnc(N)nc2N)cc(CCC)c1O
30

What do you get for C=CCOc1ccc(Cc2cnc(N)nc2N)cc1OC ?
10
